System: PLK3
Conditions: concentration: 1 μM, replicates: in singlicate; n = 1
We begin with a simple list: items and their reported %Inh.
Respond with the bare value in %.

Examples from the recorded data:
Which measured %Inh belongs to Nc1n[nH]c2nnc(-c3ccccc3)cc12 , tested on PLK3?
33

Please tell me: %Inh of Cl.c1ccc(Cn2ccc3cc(Nc4ncnc5ccccc45)ccc32)cc1 , system PLK3?;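 note: KINOMEscan kinase panel screen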
0

For PLK3, provide %Inh of CN1c2ccc(-c3ccc(C(=O)NCCO)cc3)cc2-c2[nH]ncc2S1(=O)=O please.
0

Any idea what %Inh came out for COc1cc2c(Nc3cccc(NC(=O)c4ccccc4)c3)ncnc2cc1OCCCN1CCOCC1 on PLK3?
0

Quick check: %Inh on PLK3, item CC(C)N1CCC(n2cnc(-c3ccc(F)cc3)c2-c2ccnc(N)n2)CC1 ?
0

What %Inh appears in the records for this compound with PLK3? CSc1ccc(NC2=C(c3ccccc3Cl)C(=O)NC2=O)cc1
0

New cases:
Notebook entry, PLK3 assay: %Inh of COc1ccc(NC(=O)Nc2ccc(C)c(-c3ccc(C(=O)Nc4ccncc4)cc3)c2)cc1 = ?
0

The measured values listed here are drawn from paper PMC5540273.
